Target: T1, E. coli alkaline phosphatase Strep-tag®II fusion protein (E. coli, UniProt P00634 22-471 = phosphatase)
T1 construct: mature; also called BAP-StrepII; BAP-StrepIII
T1 sequence (P00634 22-471): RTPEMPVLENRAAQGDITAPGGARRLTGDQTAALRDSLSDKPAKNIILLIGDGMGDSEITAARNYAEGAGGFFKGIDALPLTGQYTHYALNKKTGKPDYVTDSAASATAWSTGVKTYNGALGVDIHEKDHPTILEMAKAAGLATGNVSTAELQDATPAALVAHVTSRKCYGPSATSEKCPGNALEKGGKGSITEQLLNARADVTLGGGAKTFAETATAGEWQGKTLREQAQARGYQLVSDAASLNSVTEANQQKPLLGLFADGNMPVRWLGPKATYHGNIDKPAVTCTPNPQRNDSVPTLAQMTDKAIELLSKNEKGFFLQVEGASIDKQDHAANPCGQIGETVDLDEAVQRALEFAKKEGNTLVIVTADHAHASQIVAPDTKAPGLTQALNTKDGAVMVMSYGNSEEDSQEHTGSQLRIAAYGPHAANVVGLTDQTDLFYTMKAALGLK
Test: ELISA, mutein coated, BAP-StrepII titrated
pKd: −log10 of the molar value.
This section presents binders with their documented pKd values.
Parameter Measured: pKd

1. mutein m402 (designed binder, Library 1 clone) EAGITGTWYNQLGSTFIVTAGADGALTGTYACARGNAECRYVLTGRYDSAPATDGSGTALGWTVAWKNNYRNAHSATTWSGQYVGGAEARINTQWLLTSGTTEANAWKSTLVGHDTFTKVKPSAAS :: 7.04
2. mutein“1”-m111 (designed binder, Library 5 clone on mutein “1”) EAGITGTWYNQLGSTFIVTAGADGALTGTYVTARGNAESRYVLTGRYDSAPATDGSGTALGWTVAWKNNYRNAHSATTWSGQYVGGAEARINTQWLLTSGTTEYNALWSTLVGHDTFTKVKPSAAS :: 7.89
3. mutein“1”-m4 (designed binder, Library 3 clone on mutein “1”) EAGITGTWYNQLGSTFIVTAGADGALTGTYVTARGNAESRYVLTGRYDSAPATDGSGTALGWTVAWKNNYRNAHSATTWSGQYVGGAEARINTQWLLTSGTTEDNAGFSTLVGHDTFTKVKPSAAS :: 8.05
4. mutein“1”-m41 (designed binder, Library 3 clone on mutein “1”) EAGITGTWYNQLGSTFIVTAGADGALTGTYVTARGNAESRYVLTGRYDSAPATDGSGTALGWTVAWKNNYRNAHSATTWSGQYVGGAEARINTQWLLTSGTTEAWYSTLVGHDTFTKVKPSAAS :: 7.89
